Tested on: human class II OR identified in the library screening
EXPERIMENT: Confirmatory dose-response analysis of library-hit OR with cognate ligand, wild-type vs C-terminal domain SEQ ID NO: 221 (Table 17);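 further: Wild-type receptor sequences expressed from the pcDNA3.1(+) vector and compared with the C-terminally modified receptors in dose-response tests using each receptor's cognate ligand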
MEASUREMENT CONTEXT: read-out: Potency, EC50 changed C-term; OR14J1, modified C-terminus SEQ ID NO: 221 (SEQ ID NO: 738)
MEASUREMENT KIND: pEC50
Answer as the number alone; pEC50 is minus log10 of concentration in mol/L.

Look up pEC50: C[C@H]1CC[C@@]2(O)C(C)(C)[C@@H]3CC[C@@]2(C)[C@H]1C3 5.66

----------
TEST SYSTEM: OR10A3 (Homo sapiens)
Construct: Class II OR library members with modified C-terminal domains; expressed in transfected cells
Sequence (P58181 with tags, fused parts or gaps): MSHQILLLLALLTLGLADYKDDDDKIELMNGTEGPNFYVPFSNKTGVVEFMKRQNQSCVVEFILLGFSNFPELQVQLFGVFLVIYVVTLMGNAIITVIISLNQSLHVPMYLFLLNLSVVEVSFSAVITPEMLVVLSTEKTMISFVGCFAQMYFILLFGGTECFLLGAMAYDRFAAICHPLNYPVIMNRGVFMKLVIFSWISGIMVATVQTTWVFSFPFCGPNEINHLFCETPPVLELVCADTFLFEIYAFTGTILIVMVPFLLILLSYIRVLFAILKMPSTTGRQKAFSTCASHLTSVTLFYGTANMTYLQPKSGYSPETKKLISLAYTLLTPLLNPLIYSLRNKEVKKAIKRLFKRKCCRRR
EXPERIMENT: Dose-response test of single lactones on OR10A3 (luciferase)
Assay type: cell-based
MEASUREMENT KIND: EC10, concentration for 10-fold OR activation (μM)
# output: bare number, implied unit μM

Some molecules with recorded EC10, concentration for 10-fold OR activation:
# MOLECULE, EXPERIMENTAL RESULT
rows = [
    ("CCCCCCCCC1CCC(=O)O1 (stereo not drawn)", 0.85),
    ("CCCCCC1CCC(=O)O1 (stereo not drawn)", 2.83),
]

Look up EC10, concentration for 10-fold OR activation: CCCCCCCC1CCCC(=O)O1 (stereo not drawn) 2.59

Look up EC10, concentration for 10-fold OR activation: CCCCC1CCC(=O)O1 (stereo not drawn) 26.93

Look up EC10, concentration for 10-fold OR activation: CC1=CCC(C(C)CC2CCCC2=O)CC1 (stereo not drawn) 2.32

Look up EC10, concentration for 10-fold OR activation: CCCCCCCC1CCC(=O)O1 (stereo not drawn) 0.28

Look up EC10, concentration for 10-fold OR activation: CCCCCCC1CCC(=O)O1 (stereo not drawn) 0.84

Look up EC10, concentration for 10-fold OR activation: CCCC1CCC(=O)O1 (stereo not drawn) 298.04

Look up EC10, concentration for 10-fold OR activation: CCCCCC1CCCC(=O)O1 (stereo not drawn) 2.10
